read-out: C-C motif chemokine 2 (Homo sapiens) (UniProt P13500); experiment: BSK_KF3CT_MCP1: BioMAP Diversity Plus: KF3CT Assay for Monocyte Chemoattractant Protein 1 (MCP1/CCL2) Biomarker Activity (AID 2283073); conditions: primary human keratinocytes with fibroblasts; actives raise or lower the signal
Calls of active or inactive are those of the source. How the source made its calls: active means hit-call score of the fitted dose curve at least 0.9, where 1 is the maximum; inactive means score below 0.9.
Possible outcomes: active, inactive

{"columns": ["Molecule", "Label class"],
 "data": [
  ["Cc1ccc([N+](=O)[O-])cc1N", "inactive"],
  ["C1CNCCN1", "inactive"],
  ["CCCCCC1=CCCC1=O", "inactive"],
  ["CC=C(C)C(C)=O", "inactive"],
  ["CCN1CN(CC)CN(CC)C1", "inactive"],
  ["COc1ccc(C(=O)c2ccccc2)c(O)c1", "inactive"],
  ["CCc1cccc(C)c1N(C(=O)CS(=O)(=O)O)C(C)COC (stereo not drawn)", "inactive"],
  ["CCOC(=O)C1=NOC(c2ccccc2)(c2ccccc2)C1", "inactive"],
  ["O=C(Oc1ccccc1)c1ccccc1C(=O)Oc1ccccc1", "inactive"],
  ["Oc1c(Cl)cc(Cl)c(Cl)c1Cl", "active"],
  ["Nc1cccc(N)n1", "inactive"],
  ["CCCCCCC=O", "inactive"],
  ["CCCCCCCCCCCC(C)=O", "active"],
  ["CCNc1nc(NC(C)(C)C)nc(OC)n1", "inactive"],
  ["CC(CCC(=O)O)(c1ccc(O)cc1)c1ccc(O)cc1", "inactive"],
  ["CC(c1cc(C(C)(C)C)cc(C(C)(C)C)c1O)c1cc(C(C)(C)C)cc(C(C)(C)C)c1O", "inactive"],
  ["CC1(C)CC(O)CC(C)(C)N1[O]", "inactive"],
  ["Fc1ccc(Br)cc1", "inactive"]
]}
